Each record here notes measured pIC50.
Target: DNA topoisomerase 4 subunit A (Staphylococcus aureus, UniProt P0C1U9)
Sequence (P0C1U9 whole entry): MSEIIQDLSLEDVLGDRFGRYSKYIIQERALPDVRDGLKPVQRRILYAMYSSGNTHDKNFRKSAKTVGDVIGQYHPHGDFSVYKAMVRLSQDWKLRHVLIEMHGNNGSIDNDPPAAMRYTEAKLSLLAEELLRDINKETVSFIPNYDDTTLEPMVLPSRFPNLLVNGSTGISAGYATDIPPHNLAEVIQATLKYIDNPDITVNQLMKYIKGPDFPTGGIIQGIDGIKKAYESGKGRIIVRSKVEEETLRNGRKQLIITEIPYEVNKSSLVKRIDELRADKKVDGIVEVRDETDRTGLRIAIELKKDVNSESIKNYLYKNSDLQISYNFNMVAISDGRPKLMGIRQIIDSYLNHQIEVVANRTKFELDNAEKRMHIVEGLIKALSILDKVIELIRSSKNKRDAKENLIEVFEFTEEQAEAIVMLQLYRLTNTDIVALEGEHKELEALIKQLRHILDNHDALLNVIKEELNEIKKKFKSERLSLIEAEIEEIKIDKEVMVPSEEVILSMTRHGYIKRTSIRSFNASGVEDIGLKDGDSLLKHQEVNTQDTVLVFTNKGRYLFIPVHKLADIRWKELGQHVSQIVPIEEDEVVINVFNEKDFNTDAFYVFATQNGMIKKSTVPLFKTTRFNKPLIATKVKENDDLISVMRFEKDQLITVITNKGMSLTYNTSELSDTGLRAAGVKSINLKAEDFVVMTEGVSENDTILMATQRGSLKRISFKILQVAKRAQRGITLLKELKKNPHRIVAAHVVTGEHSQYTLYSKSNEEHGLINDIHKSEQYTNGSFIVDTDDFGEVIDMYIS
Experiment: Inhibitory activity against Staphylococcus aureus ATCC 29213 wild type Topo 4
pIC50: −log10 of the molar value.

Here's what some known entries look like.
mol-smiles	pIC50
O=c1[nH]sc2c1c(=O)c1cc(F)c(-c3ccc4[nH]ccc4c3)cc1n2C1CC1	< 4.40
O=c1[nH]sc2c1c(=O)c1cc(F)c(-c3cccc4cccnc34)cc1n2C1CC1	< 4.40

Now for the molecule whose pIC50 we want.
// pIC50 value for `O=c1[nH]sc2c1c(=O)c1cc(F)c(-c3cncc4ccccc34)cc1n2C1CC1` : < 4.42
